# EXPERIMENTAL_SYSTEM: UniProt:P29990
# Sequence (P29990 1476-2093): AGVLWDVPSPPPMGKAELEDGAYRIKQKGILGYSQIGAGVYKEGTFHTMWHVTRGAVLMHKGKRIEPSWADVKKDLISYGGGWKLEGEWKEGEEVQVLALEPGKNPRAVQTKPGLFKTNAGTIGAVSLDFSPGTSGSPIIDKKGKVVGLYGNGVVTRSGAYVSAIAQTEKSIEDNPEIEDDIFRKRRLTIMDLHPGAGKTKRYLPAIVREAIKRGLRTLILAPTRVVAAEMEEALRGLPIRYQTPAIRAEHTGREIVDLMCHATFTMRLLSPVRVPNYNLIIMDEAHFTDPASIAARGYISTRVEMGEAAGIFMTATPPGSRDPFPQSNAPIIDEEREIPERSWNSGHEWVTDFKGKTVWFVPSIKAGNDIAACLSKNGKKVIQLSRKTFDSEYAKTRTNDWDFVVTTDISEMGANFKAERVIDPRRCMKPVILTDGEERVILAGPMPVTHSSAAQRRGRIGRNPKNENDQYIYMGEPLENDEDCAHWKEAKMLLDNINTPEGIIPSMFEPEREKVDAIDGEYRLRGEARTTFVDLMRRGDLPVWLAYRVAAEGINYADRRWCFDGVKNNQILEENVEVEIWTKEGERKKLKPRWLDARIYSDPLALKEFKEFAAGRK
# Sequence (P29990 1346-1475): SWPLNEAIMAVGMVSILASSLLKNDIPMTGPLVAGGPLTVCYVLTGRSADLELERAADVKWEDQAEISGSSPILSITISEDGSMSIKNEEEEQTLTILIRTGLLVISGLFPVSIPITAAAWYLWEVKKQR
# PROTOCOL_DETAILS: Trans-cleavage FRET assay with DENV-2 NS2B-NS3 protease
# Format: cell-based
# CONDITION_LABEL: read-out: Reduction of DENV-2 NS2B-NS3 protease activity
Listing of entries alongside the reported inhibition at 10 µM.

COMPOUND	MEASURE_NAME	TEST_VALUE
COC(=O)CCC(NC(=O)C1OC(OC2C(OC3CCC4(C)C(CCC5(C)C4C(=O)C=C4C6CC(C)(C(=O)O)CCC6(C)CCC45C)C3(C)C)OC(C(=O)NC(CCC(=O)OC)C(=O)OC)C(O)C2O)C(O)C(O)C1O)C(=O)OC (centres unmarked)	inhibition at 10 µM	> 20%
COC(=O)C(CCC(=O)O)NC(=O)C1OC(OC2C(OC3CCC4(C)C(CCC5(C)C4C(=O)C=C4C6CC(C)(C(=O)O)CCC6(C)CCC45C)C3(C)C)OC(C(=O)NC(CCC(=O)O)C(=O)OC)C(O)C2O)C(O)C(O)C1O (centres unmarked)	inhibition at 10 µM	> 20%
COC(=O)CCCCCCNC(=O)C1OC(OC2C(OC3CCC4(C)C(CCC5(C)C4C(=O)C=C4C6CC(C)(C(=O)O)CCC6(C)CCC45C)C3(C)C)OC(C(=O)NCCCCCCC(=O)OC)C(O)C2O)C(O)C(O)C1O (centres unmarked)	inhibition at 10 µM	> 20%
CCOC(=O)C(CC(C)C)NC(=O)C1OC(OC2C(OC3CCC4(C)C(CCC5(C)C4C(=O)C=C4C6CC(C)(C(=O)O)CCC6(C)CCC45C)C3(C)C)OC(C(=O)NC(CC(C)C)C(=O)OCC)C(O)C2O)C(O)C(O)C1O (centres unmarked)	inhibition at 10 µM	> 20%
COC(=O)CCCCCCCCCCNC(=O)C1OC(OC2C(OC3CCC4(C)C(CCC5(C)C4C(=O)C=C4C6CC(C)(C(=O)O)CCC6(C)CCC45C)C3(C)C)OC(C(=O)NCCCCCCCCCCC(=O)OC)C(O)C2O)C(O)C(O)C1O (centres unmarked)	inhibition at 10 µM	> 20%

GET /values?readout=inhibition at 10 µM&item= CN(C)[C@@H]1C(O)=C(C(N)=O)C(=O)[C@@]2(O)C(O)=C3C(=O)c4c(O)cccc4[C@@](C)(O)[C@H]3C[C@@H]12 [T, tetracycline, reference compound] > 20%

GET /values?readout=inhibition at 10 µM&item= CCOC(=O)C(Cc1ccccc1)NC(=O)C1OC(OC2C(OC3CCC4(C)C(CCC5(C)C4C(=O)C=C4C6CC(C)(C(=O)NC(Cc7ccccc7)C(=O)OCC)CCC6(C)CCC45C)C3(C)C)OC(C(=O)NC(Cc3ccccc3)C(=O)OCC)C(O)C2O)C(O)C(O)C1O (centres unmarked) > 20%

GET /values?readout=inhibition at 10 µM&item= CCOC(=O)CCNC(=O)C1OC(OC2C(OC3CCC4(C)C(CCC5(C)C4C(=O)C=C4C6CC(C)(C(=O)O)CCC6(C)CCC45C)C3(C)C)OC(C(=O)NCCC(=O)OCC)C(O)C2O)C(O)C(O)C1O (centres unmarked) > 20%
